- Test system: Wnt activity (Sp5-Luc reporter, Wnt-responsive promoter) in SW480 colon carcinoma cells
- methodNotes: Wnt activity screening assay: Sp5-Luc reporter gene assay in SW480 cells
- Assay type: cell-based
- conditionParameters: Homo sapiens, overnight incubation, 10-point curve starting from 10 μM
quantity: EC50 (nM)

Below, each entry is followed by its recorded EC50 result.
1. Fc1ccccc1-c1cccc2[nH]c(-c3n[nH]c4ccc(-c5cncc(CNCC6CCCC6)c5)nc34)nc12 : 1140
2. Cc1ccc(-c2cccc3[nH]c(-c4n[nH]c5ccc(-c6cncc(NC(=O)C(C)C)c6)nc45)nc23)s1 : 3130
3. CCCC(=O)Nc1cncc(-c2ccc3[nH]nc(-c4nc5c(-c6ccsc6)cccc5[nH]4)c3n2)c1 : 643

a. c1cc(N2CCCCC2)c2nc(-c3n[nH]c4ccc(-c5cncc(OCCN6CCCC6)c5)nc34)[nH]c2c1
b. Cn1cc(-c2ccc3[nH]nc(-c4nc5c(-c6cc(F)cc(CNS(C)(=O)=O)c6)cccc5[nH]4)c3n2)cn1
c. CC(C)(C)C(=O)Nc1cncc(-c2ccc3[nH]nc(-c4nc5c(-c6ccc(Cl)s6)cccc5[nH]4)c3n2)c1
Reorder the items by EC50, least to greatest. Please list the labels in the order you were asked to rank them.
b, c, a
(b: 539 nM, c: 1310 nM, a: 3050 nM)

---

Each entry below carries its reported Emax.
- System: primary human mesenchymal stem cells (hMSCs)
- methodNotes: Induction of chondrogenesis in human mesenchymal stem cells (nodule staining with Rhodamine B / Nile Red)
- Assay type: cell-based
- conditionParameters: TGF-β3 (10 ng/mL) as positive control, read-out: Max. Activity as % TGF-β3 activity
Only the number, expressed in %, is required.

Below, each entry is followed by its recorded Emax result.
1) CC(C)(C)C(=O)Nc1cncc(-c2ccc3[nH]nc(-c4nc5c(-c6ccc(F)cc6)cccc5[nH]4)c3n2)c1 [Compound 36] : 86
2) CN(C)Cc1cncc(-c2ccc3[nH]nc(-c4nc5c(N6CCCCC6)cccc5[nH]4)c3n2)c1 [Compound 181] : 52
3) c1cncc(-c2ccc3[nH]nc(-c4nc5c(-c6cccnc6)cccc5[nH]4)c3n2)c1 [Compound 88] : 58
4) Cc1ccc(-c2cccc3[nH]c(-c4n[nH]c5ccc(-c6cncc(NC(=O)C(C)C)c6)nc45)nc23)s1 [Compound 401] : 124
5) CCNCc1cncc(-c2ccc3[nH]nc(-c4nc5c(-c6ccccn6)cccc5[nH]4)c3n2)c1 [Compound 146] : 279

Quick one: give measured Emax for CN(C)CCOc1cncc(-c2ccc3[nH]nc(-c4nc5c(-c6cccs6)cccc5[nH]4)c3n2)c1 [Compound 707]
142

Quick one: give measured Emax for CN(C)Cc1cncc(-c2ccc3[nH]nc(-c4nc5c(-c6cccc(F)c6)cccc5[nH]4)c3n2)c1 [Compound 13]
85

Quick one: give measured Emax for COc1cncc(-c2ccc3[nH]nc(-c4nc5c(-c6cccc(F)c6)cccc5[nH]4)c3n2)c1 [Compound 516]
54

Quick one: give measured Emax for Cc1cn(-c2cccc3[nH]c(-c4n[nH]c5ccc(-c6cncc(CN7CCCC7)c6)nc45)nc23)cn1 [Compound 210]
193

Quick one: give measured Emax for CN(C)c1cncc(-c2ccc3[nH]nc(-c4nc5c(-c6cccs6)cccc5[nH]4)c3n2)c1 [Compound 343]
83

---

Each entry below carries its reported Emax.
- Tested on: primary human mesenchymal stem cells (hMSCs)
- methodNotes: Induction of chondrogenesis in human mesenchymal stem cells (nodule staining with Rhodamine B / Nile Red)
- Type: cell-based
- conditionParameters: TGF-β3 (10 ng/mL) as positive control, read-out: Max. Activity as % TGF-β3 activity
Only the number, expressed in %, is required.

Below, each entry is followed by its recorded Emax result.
1. CC(C)CC(=O)Nc1cncc(-c2ccc3[nH]nc(-c4nc5c(-c6ccc(Cl)s6)cccc5[nH]4)c3n2)c1 : 56
2. CCCC(=O)Nc1cncc(-c2ccc3[nH]nc(-c4nc5c(-c6cc(F)cc(CNS(C)(=O)=O)c6)cccc5[nH]4)c3n2)c1 : 100
3. Fc1cccc(-c2cccc3[nH]c(-c4n[nH]c5ccc(-c6cn[nH]c6)nc45)nc23)c1 : 53
4. CN1CCN(c2cccc3[nH]c(-c4n[nH]c5ccc(-c6cncc(NC(=O)C(F)(F)F)c6)nc45)nc23)CC1 : 51
5. Fc1ccc(-c2cccc3[nH]c(-c4n[nH]c5ccc(-c6cncc(CN7CCCC7)c6)nc45)nc23)cc1 : 23

Quick one: give measured Emax for "Fc1ccc(-c2cccc3[nH]c(-c4n[nH]c5ccc(-c6cncnc6)nc45)nc23)cc1"
96

Quick one: give measured Emax for "Oc1cncc(-c2ccc3[nH]nc(-c4nc5c(-c6cccc(F)c6)cccc5[nH]4)c3n2)c1"
45

---

- System: Wnt activity (Sp5-Luc reporter, Wnt-responsive promoter) in SW480 colon carcinoma cells
- methodNotes: Wnt activity screening assay: Sp5-Luc reporter gene assay in SW480 cells
- Format: cell-based
- conditionParameters: Homo sapiens, overnight incubation, 10-point curve starting from 10 μM
quantity: EC50 (nM)

1. COc1cncc(-c2ccc3[nH]nc(-c4nc5c(-c6ccoc6)cccc5[nH]4)c3n2)c1 [Compound 692] : 1370
2. CN(C)CCNc1cc(F)cc(-c2cccc3[nH]c(-c4n[nH]c5ccc(-c6cncc(OCCN7CCCC7)c6)nc45)nc23)c1 [Compound 786] : 3110
3. Fc1cccc(-c2cccc3[nH]c(-c4n[nH]c5ccc(-c6cncc(OC7CCNCC7)c6)nc45)nc23)c1 [Compound 512] : 2140

a. Fc1cccc(-c2cccc3[nH]c(-c4n[nH]c5ccc(-c6ccncc6)nc45)nc23)c1 [Compound 18]
b. CS(=O)(=O)NCc1cc(F)cc(-c2cccc3[nH]c(-c4n[nH]c5ccc(-c6cncnc6)nc45)nc23)c1 [Compound 503]
c. CC(C)C(=O)Nc1cncc(-c2ccc3[nH]nc(-c4nc5c(-c6ccccc6F)cccc5[nH]4)c3n2)c1 [Compound 65]
Reorder the items by EC50, least to greatest. Please list the labels in the order you were asked to rank them.
a, b, c
(a: 1320 nM, b: 2890 nM, c: 5100 nM)

---

- System: IL-6 (THP-1 cells)
- methodNotes: IL-6 inhibition in LPS-stimulated THP-1 monocytes (HTRF)
- Format: cell-based
- conditionParameters: Homo sapiens, 500 ng/mL LPS, IL-6 HTRF, Table 6
- Protocol: Human Monocyte Cell Culture: Human monocyte cell line (THP-1 cells; Catalog # TIB-202, ATCC, Manassas, Va.) were cultured in Roswell Park Memorial Institute (RPMI) 1640 Medium (Catalog #21870-100, Buffalo, N.Y.) with 1% L-glutamine, 1% HEPES, 1% Sodium Pyruvate, 2% Sodium Bicarbonate supplemented with 100 units/mL penicillin, 50 μg/mL streptomycin, 2-mercaptoethanol (0.05 mM) [basal medium] and 10% fetal bovine serum (Catalog #16140089, Life Technologies, Carlsbad, Calif.) at 37° C. and 5% CO2. […]
quantity: EC50 (nM)

a. CN(C)CCNc1cc(F)cc(-c2cccc3[nH]c(-c4n[nH]c5ccc(-c6cncc(OCCN7CCCC7)c6)nc45)nc23)c1
b. O=C(Cc1ccccc1)Nc1cncc(-c2ccc3[nH]nc(-c4nc5ccccc5[nH]4)c3n2)c1
c. CN(C)c1cncc(-c2ccc3[nH]nc(-c4nc5c(N6CCCCC6)cccc5[nH]4)c3n2)c1
rank_up(items): orders items by reported EC50 in ascending numerical order. Please list the labels in the order you were asked to rank them.
b, a, c

---

Each entry below carries its reported Emax.
- System: primary human mesenchymal stem cells (hMSCs)
- methodNotes: Induction of chondrogenesis in human mesenchymal stem cells (nodule staining with Rhodamine B / Nile Red)
- Assay type: cell-based
- conditionParameters: TGF-β3 (10 ng/mL) as positive control, read-out: Max. Activity as % TGF-β3 activity
Only the number, expressed in %, is required.

Quick one: give measured Emax for "FC1(F)CCN(Cc2cncc(-c3ccc4[nH]nc(-c5nc6c(-c7ccsc7)cccc6[nH]5)c4n3)c2)C1"
39

Quick one: give measured Emax for "CN(C)CC(=O)Nc1cncc(-c2ccc3[nH]nc(-c4nc5c(-c6cccc(F)c6)cccc5[nH]4)c3n2)c1"
44

Quick one: give measured Emax for "CCC(=O)Nc1cncc(-c2ccc3[nH]nc(-c4nc5c(N6CCCCC6)cccc5[nH]4)c3n2)c1"
66

---

- System: Wnt activity (Sp5-Luc reporter, Wnt-responsive promoter) in SW480 colon carcinoma cells
- methodNotes: Wnt activity screening assay: Sp5-Luc reporter gene assay in SW480 cells
- Assay type: cell-based
- conditionParameters: Homo sapiens, overnight incubation, 10-point curve starting from 10 μM
pEC50: −log10 of the molar value.
quantity: pEC50

1. FC1(F)CCN(Cc2cncc(-c3ccc4[nH]nc(-c5nc6c(N7CCCCC7)cccc6[nH]5)c4n3)c2)C1 [Compound 194] : 5.41

A. CC(C)CC(=O)Nc1cncc(-c2ccc3[nH]nc(-c4nc5c(-c6cccc(F)c6)cccc5[nH]4)c3n2)c1 [Compound 2]
B. Cc1ncc(-c2ccc3[nH]nc(-c4nc5c(-c6cc(F)cc(NCCN(C)C)c6)cccc5[nH]4)c3n2)n1C [Compound 781]
C. CCC(=O)Nc1cncc(-c2ccc3[nH]nc(-c4nc5c(-c6cccs6)cccc5[nH]4)c3n2)c1 [Compound 337]
Rank the 3 molecules: largest pEC50 first, smallest last. Please list the labels in the order you were asked to rank them.
B, A, C
(B: 6.32, A: 5.94, C: 5.45)

The measurements presented in this section are drawn from patent US10392383B2.
